# METHOD_SUMMARY: Binding affinity towards human Bradykinin receptor, activity expressed as Kd
I'd appreciate it if you could label each record using Kd and these ranges: lower bin (below 300 nM), middle bin (300 nM to below 1000 nM), upper bin (1000 nM or more)

>>> classification("CCCC[P+](CCCC)(CCCC)Cc1ccc(NC(=O)[C@H](Cc2ccc3ccccc3c2)NC(=O)NC2CCCCC2)cc1")
"upper bin"
>>> classification("NCc1ccc(NC(=O)[C@@H](Cc2ccc3ccccc3c2)N=C(NC2CCCCC2)NC2CCCCC2)cc1")
"middle bin"
>>> classification("NC(N)=NCCC[C@H](N)C(=O)NCc1ccc(NC(=O)[C@H](Cc2ccc3ccccc3c2)N=C(NC2CCCCC2)NC2CCCCC2)cc1")
"middle bin"
>>> classification("NCc1ccc(NC(=O)[C@H](Cc2ccc3ccccc3c2)N=C(NC2CCCCC2)NC2CCCCC2)cc1")
"middle bin"
>>> classification("N=C(N)NCc1ccc(NC(=O)[C@H](Cc2ccc3ccccc3c2)N=C(NC2CCCCC2)NC2CCCCC2)cc1")
"middle bin"
>>> classification("NC(N)=NCCC[C@@H](N)C(=O)NCc1ccc(NC(=O)[C@H](Cc2ccc3ccccc3c2)N=C(NC2CCCCC2)NC2CCCCC2)cc1")
"lower bin"
>>> classification("CCCC[P+](CCCC)(CCCC)Cc1ccc(NC(=O)[C@@H](Cc2ccc3ccccc3c2)N=C(NC2CCCCC2)NC2CCCCC2)cc1")
"lower bin"
>>> classification("NCc1ccc(N(CCC(=O)O)C(=O)[C@H](Cc2ccc3ccccc3c2)N=C(NC2CCCCC2)NC2CCCCC2)cc1")
"upper bin"

The values you see were collected from ChEMBL document CHEMBL1130491.
